subject.of.test: AMP-activated protein kinase, AMPK (Homo sapiens) (UniProt P54646+O43741+P54619+Q9UGJ0+Q9Y478+Q13131+Q9UGI9)
assay.procedure: AMP-dependent Kinase enzyme assay. An in vitro enzyme assay that detects ADP turnover that is directly proportional to AMPK activity. This uses naive AMPK that is activated during the assay with MK-8722
Type: functional
Parameters: scale not given: direction of the effect not stated beside the values
particulars: 30 µM
measurement.label: Percent Effect (%)
Unit % implied. Number only.

Examples from the recorded data:
O=C(N[C@H]1CN[C@H]2CCCO[C@H]21)c1ccno1; -1.51
CO[C@@H]1CN(Cc2scnc2C)[C@@H]2CCCO[C@@H]21; -6.24
CCc1ccc(OCC(=O)N2CCN(CC)CC2)cc1; -0.678
O=C(NC[C@]12COC[C@H]1CN(Cc1cccnc1)C2)c1ccno1; 8.36
COCC(=O)NC(C)Cc1cccc(Br)c1 (configuration not stated); -9.62

## Task Sample c1cncc(CO[C@H]2CO[C@@]3(CCN(Cc4ccoc4)C3)C2)c1 — what was its Percent Effect?
## Result 7.6

## Task Another compound to look at: Cc1cc(C)c2[nH]c(C)c(CC(=O)N(C)CCN(C)C)c2c1
## Result 3.2

## Task Another compound to look at: c1ccc(OC[C@H]2CCC[C@]23CN(Cc2nccs2)CCO3)nc1
## Result -19.9

## Task Another compound to look at: COc1ccc(NC(=O)CCN2CC=C(c3cnn(C)c3)CC2)c(C)c1
## Result 6.63

## Task Another compound to look at: CCc1cccc2c(CC(=O)N(C)CCN(C)C)c(C)[nH]c12
## Result 9.67

## Task Another compound to look at: CC(C)N1CCOCC2(CN(Cc3ccccn3)CCO2)C1 (configuration not stated)
## Result 2.61

## Task Another compound to look at: CN1C(=O)C2(CCN(CCO)C2)c2ccccc21 (configuration not stated)
## Result 5.24

---

subject.of.test: Aspartate--tRNA(Asp/Asn) ligase (Mycobacterium tuberculosis (strain ATCC 25618 / H37Rv))
Sequence (whole entry): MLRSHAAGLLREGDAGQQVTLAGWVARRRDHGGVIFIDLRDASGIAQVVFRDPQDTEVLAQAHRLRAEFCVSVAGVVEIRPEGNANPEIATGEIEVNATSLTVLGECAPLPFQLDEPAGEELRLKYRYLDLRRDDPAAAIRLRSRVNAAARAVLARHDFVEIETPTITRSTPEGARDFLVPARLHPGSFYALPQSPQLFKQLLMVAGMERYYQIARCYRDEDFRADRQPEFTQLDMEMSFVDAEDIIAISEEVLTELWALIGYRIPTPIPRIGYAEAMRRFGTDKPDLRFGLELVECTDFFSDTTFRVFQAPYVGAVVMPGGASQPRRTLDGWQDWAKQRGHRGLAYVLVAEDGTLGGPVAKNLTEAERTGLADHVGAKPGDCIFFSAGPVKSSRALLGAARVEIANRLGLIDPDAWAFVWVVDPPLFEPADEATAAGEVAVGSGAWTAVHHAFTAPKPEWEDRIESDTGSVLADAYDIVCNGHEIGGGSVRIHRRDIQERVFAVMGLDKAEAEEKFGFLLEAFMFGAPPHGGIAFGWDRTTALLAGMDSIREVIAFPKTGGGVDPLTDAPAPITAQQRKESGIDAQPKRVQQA
assay.procedure: Assay for Asp RNA synthetase-1 from Mycobacterium tuberculosis
Assay type: functional
Set-up: scale not given: direction of the effect not stated beside the values
particulars: 30 µM
Quick reference: Percent Effect of the listed items.
Unit % implied. Number only.

Examples from the recorded data:
c1ccc(O[C@H]2CC[C@H]3[C@H]2OCCN3Cc2nccs2)nc1; 5.47
NCc1cnn(-c2ccccc2C(=O)NCc2ccncc2)c1; -3.11
Cc1cc(C)nc(Nc2cccc(C3CCCN(C)C3)n2)n1 (stereo unspecified); -3.29
O=C(c1ccn[nH]1)N1CCCC(n2cncn2)C1 (stereo unspecified); -5.6

## Task Sample Cc1cnn(CC2CN(CC(=O)Nc3nnc(C)s3)CCO2)c1 (stereo unspecified) — what was its Percent Effect?
## Result -4.68

## Task Another compound to look at: Cc1c(C)n(Cc2ccncc2)c2nc3c(c(N)c12)CCCCC3
## Result 4.67
